tested on: Mus musculus; test: Hypolipidemic activity (16th day serum cholesterol) at 20 mg/kg in CF1 male mice; assay type: functional
quantity_measured: Control (%)
State the answer as a number, implicitly in %.

Use these answered entries as a reference point.
compound	subject_of_test	Control [%]
CC(=O)CCN1C(=O)c2ccccc2S1(=O)=O	Mus musculus	62
O=C(O)CCN1C(=O)c2ccccc2S1(=O)=O	Mus musculus	47
CCCCCN1C(=O)c2ccccc2S1(=O)=O	Mus musculus	58
O=C(O)CCCCN1C(=O)c2ccccc2S1(=O)=O	Mus musculus	68
CCOC(=O)CCN1C(=O)c2ccccc2S1(=O)=O	Mus musculus	71
O=C(O)CCCCCN1C(=O)c2ccccc2S1(=O)=O	Mus musculus	76
CCCCN1C(=O)c2ccccc2S1(=O)=O	Mus musculus	56
O=C1NC(=O)c2ccccc21 [PHTHALIMIDE]	Mus musculus	57
O=S1(=O)NCc2ccccc21	Mus musculus	80
O=C(O)CCCCCN1C(=O)c2ccccc2C1=O	Mus musculus	67

[ask] Fill in the blank: the reported Control of CC(=O)CN1C(=O)c2ccccc2S1(=O)=O is ____.
[reply] 52

[ask] # Control lookup, item O=C(O)CCCCN1C(=O)c2ccccc2C1=O
[reply] 77

[ask] For O=C1NS(=O)(=O)c2ccccc21 [SACCHARIN] , what is its reported Control?
[reply] 67

[ask] Which Control is reported for this compound? CCCCN1Cc2ccccc2S1(=O)=O
[reply] 68

[ask] Entry O=C(O)CCN1Cc2ccccc2C1=O : reported Control = ?
[reply] 97

[ask] Look up Control for this compound: CCCCN1Cc2ccccc2C1=O
[reply] 62

[ask] Which Control value belongs to O=C(O)CCN1Cc2ccccc2S1(=O)=O ?
[reply] 59

[ask] Find the recorded Control belonging to CC(=O)CCN1Cc2ccccc2S1(=O)=O and report it.
[reply] 81

[ask] Control lookup needed for CCCCCN1C(=O)c2ccccc2C1=O , thanks.
[reply] 58

[ask] What Control value was documented for this compound, O=C1NCc2ccccc21 ?
[reply] 87

[ask] Recorded Control for O=C(O)CCCN1C(=O)c2ccccc2C1=O , please?
[reply] 68

[ask] Looking for the measured Control of CC(=O)CCCN1C(=O)c2ccccc2S1(=O)=O , can you help?
[reply] 77

[ask] Tell me the measured Control of O=C(O)CCCN1C(=O)c2ccccc2S1(=O)=O , please.
[reply] 73

[ask] Quick one: Control for C=C(CN1C(=O)c2ccccc2S1(=O)=O)C(=O)O ?
[reply] 85

====

test system: Mus musculus; assay: Hypolipidemic activity (16th day serum cholesterol) at 20 mg/kg in CF1 male mice; assay type: functional
quantity_measured: Control

smiles_structure	readout_value
CCCCN1C(=O)c2ccccc2C1=O	<54%
CC(=O)CCCN1C(=O)c2ccccc2C1=O	<63%
O=C(O)CCN1C(=O)c2ccccc2C1=O	<55%
CC(=O)CCN1C(=O)c2ccccc2C1=O	<63%
CC(=O)CCN1Cc2ccccc2C1=O	<84%

Please look at the following molecule next.
[ask] Fill in: Control of CC(=O)CN1C(=O)c2ccccc2C1=O is ___
[reply] <67%
